Listed below: pIC50 values for each entry.
Test System: recombinant human DCXR (Homo sapiens)
Assay Comment: Inhibition of quinone redox cycling by DCXR
Type: biochemical
Scale: negative log10 of molar concentration, which is what pIC50 denotes.

CCCC(=O)O [butyric acid]    2.17
CCCCC(=O)O [pentanoic acid]    1.55
CCCCCCC(=O)O [heptanoic acid]    1.60

For record CCCCCC(=O)O [hexanoic acid] the listed pIC50 is 1.44

---

Test System: recombinant human DCXR (Homo sapiens, UniProt Q7Z4W1)
Sequence (Q7Z4W1 whole entry): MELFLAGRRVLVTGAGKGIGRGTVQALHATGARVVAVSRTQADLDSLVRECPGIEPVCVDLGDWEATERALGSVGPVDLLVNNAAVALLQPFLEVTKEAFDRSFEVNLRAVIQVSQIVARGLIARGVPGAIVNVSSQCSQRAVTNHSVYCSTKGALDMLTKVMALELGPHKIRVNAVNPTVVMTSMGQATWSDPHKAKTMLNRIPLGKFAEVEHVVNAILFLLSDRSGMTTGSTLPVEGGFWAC
Assay Comment: Inhibition of diacetyl reduction by DCXR
Format: biochemical
Metric Name: Ki (µM)
Just the number in µM, nothing appended.

CC1=CC(=O)c2ccccc2C1=O [menadione, 2-methyl-1,4-naphthoquinone]    24.3

Consider now this further compound.
Recorded Ki (compound O=C1C=CC(=O)c2ccccc21 [1,4-naphthoquinone] ): 5.4

---

Test System: recombinant human DCXR (Homo sapiens, UniProt Q7Z4W1)
Assay Comment: Inhibition of diacetyl reduction by DCXR
Assay type: biochemical
Assay Context: inhibition of diacetyl reduction
Metric Name: Type of inhibition

O=C1C=Cc2ccccc2C1=O    competitive
O=C1C(=O)c2ccccc2-c2ccccc21    competitive
O=C1C=CC(=O)c2ccccc21    competitive

---

Test System: recombinant human DCXR (Homo sapiens, UniProt Q7Z4W1)
Assay Comment: Inhibition of diacetyl reduction by DCXR
Assay type: biochemical
# Lookup of reported pIC50 keyed by entry
Lab note — pIC50 values are minus log10 of concentrations in M.

CC1=CC(=O)c2ccccc2C1=O    4.28

The molecule CCCCCCC(=O)O showed pIC50 equal to 1.70

Sure, the documented pIC50 for O=C1C=CC(=O)c2ccccc21 is 4.93

---

IC50: recorded values
Test System: recombinant human DCXR (Homo sapiens, UniProt Q7Z4W1)
Assay Comment: Inhibition of diacetyl reduction by DCXR
Format: biochemical
# value in µM; strip the unit string

Examples with their reported IC50 follow.
O=C1C=Cc2ccccc2C1=O    2.9
CCCCCC(=O)O    6100

For reference, reported IC50 for CCCCC(=O)O stands at 4400

# compound CCCC(=O)O ; its IC50 = 950

Lab book: IC50 of O=C1C(=O)c2ccccc2-c2ccccc21 noted as 9.3
